# TEST METHOD NOTES: yeast display, Sf9 membrane polyspecificity reagent, FACS + sequencing; frameworks hold sequencing errors
TEST READOUT: polyreactivity (PSR sort gate)

1. QVQLVESGVGLVQAGGSLRLSCASSGFTFYYYAMGWYRQAPGKERELVAAIDTSDGSTYYADSVKGRFTISRDNAKNTVYLQMNSLKPEDTAVYYCAAEVDWVPFLLDYWGQGTQVTVSS: low polyreactivity
2. QVQLVESGGGLDQAGGSLRLSCAASGSTFYKYAMGWYRQAPGNERDLVAGISSSGGNTYYADSVKGRFTISRDNAKNTDYLQMNSLKPEDTAVYYCAARPRYLKEYDYWGQGTQVSVSS: high polyreactivity
3. QVQLVESGGGLVQAGGSLRLSCAASGSTFFRNAMGWYRQAPGKERELVAAISGSGNTYYADSVKGRFTISRDNAKNTVYLQMNSLKPEDTAVYYCADDVVYWYFHYDYWGQGTQVTVSS: low polyreactivity
4. QVQLVESGGGLVQAGGSLRLSCAASGFIFYSNAMGWYRQAPGKERELVAGISRGGSTYYADSVKGRFTISRDNAKNTVYLQMNRLKPEDTAVYYCAAKISLGDDYWGQGTQVTVSS: low polyreactivity
5. QVQLVESGGGLVQAGGSLRLSCAASGSIFNANAMGLYIQAPGKERELVASISGGAGSTYYADSVKGRFTISRDNAKNTVYLQMNSLKPEDTAVYYCNARWQEPLKYDYWGQGTQVTVSS: low polyreactivity
6. QVQLVESGGGLFQAGGSLRLSCAASGRIFSDYAMGWYRQAPGKERELVATITSGDSTNYADSVKGRFTISRDNAKNTVYLQMNSLKPEDTAVYYCNADRFADYDYWGQGTQVTVSS: low polyreactivity
7. QVQLVESGGGLVQAGGSLRLSCAASGITFYTYAMGWYRQAPGKERELVAAISTGGSTYYADSVKGRFTISRDNAKNTVYLQMNSLKPEDTAVYYCAARTFSYPRRAYYYWGQGTQVTVSS: high polyreactivity
8. QVQLVESGGGLVQAGGSLRLSCAASGRIFTSYVMGWDRQAPGKERELVAAITRSGGSTYYADSVKGRFTISRDNAKNTVYLQMNSQKPEDTAVYYCAAGVRGGGGRYRYGYWGQGTQVTVSS: high polyreactivity
9. QVQLVESGGGLVQAGGSLRLSCAASGRIFFRYTMGWYRQAPGKESELVAAITKRGGTYYADSVKGRFTISRDNAKNTVYLQMNSLKPEDTAVYYCNAVRYGINSYTYRRGYWGQGTQVTVSS: high polyreactivity
10. QVQLVESGGGLVQAGGSLRLSCAASGNTFGRYAMGWYRQAPGKERELVASIRGSSVRTFYADSVKGRFTISRDNAKNTVYLQMNSLKPEDTAVYYCAKRGYAYPSSYDSWGQGTQVTVSS: high polyreactivity
11. QVQLVESGGGLVQAGGSLRLSCAASGRIFARYTMGWYRQAPGKEREFVAGIRSSGGRTYYADSVKGRFTISRDNAKNTVYLQMNSLKPEDTALYYCNAGGSWYFARYDYWGQGTQVTVSS: low polyreactivity
12. QVQLVETGGGLVQAGGRLRLSCAASGRILPGNAMGWSRQAPGKERELVAAISSGGRTNYADSVKGRFTISRDNAKNTVYLQMNSLKPEESAVYYCAKRTVWWSNWHYYPPTYNYWGQGTQVTVSS: high polyreactivity
13. QVQLVESGGGLVQAGGSLRLSCAASGLTFDWYALGWYRQAPGKERELVAAISWNGVSTDYADSVKGRFTISRDNAKNTVYLQMNSLKPEDTAVYYCNAKGQRNKRWRGYWGQGTQVTVSS: high polyreactivity
14. QDQLVVSGGGLVQAGGSLRLSCAASGFIFYRYSMGWYSQEPGKEREVVASITRSGGSTYYAASVKGRFTISRDKAKNTLYLPMNSLKPVETAVYYCATAIRYFVSYDYWGQGTEVTVSS: high polyreactivity
15. QVQLVESGGGLVQAGGSLRLSCAASGFIFSVYAMGGYRQAPGKDTELVAVISTSGGRTYYADSVKGRFTISRDNAKNTVYLQMNSLKPEDTAVYYCAADGFQYTLGNYYWGQGTQVTVSS: high polyreactivity
16. QVQLVESGGGLVQAGGSLRLSCAASGRIFSKYAMGWYRQAPGKERELVASIRWRGDRTYYADSVKGRFTISRDNAKNTVYLQMNSLKPEDTAVYYCAVETLWQGSEYWVQGTQVTVSS: low polyreactivity
17. QVQLVESGGGLVQAGGSLRLSCAASGRIFYVNAMGWYRQAPGKERELVAGIDDGVTTYYAVSVKGRFTSSRDNAKNTVYLQMNSLKPEDTAVYYCAKETLVILIYDYWGQGTQVTVSS: low polyreactivity
18. QVQLVESGGGLVQAGGSLRLSCAASGIIFYFYAMGWYRQAPGKERELVAAITSSGGSTYYADSVKGRFTISRDNAKNTVYLQMNSLKPEDTAVYYCAADSLHGRKFRGVDYWGQGTQVTVSS: low polyreactivity
19. QVQLVESGGGLVQAGGSLRLSCAASGSTFHPYAMGWYRQPPGKASELVAAINWRVGSTYYADSVKGRFTISRDNAKNTVYLQMTSQIPEDTAVYYCAVSYMATLGRSRYDYWGQGTQVTVSS: low polyreactivity
20. QVQLVESGGGLVQAGGSLLLSCDASGGTLDYYVMGWYRQAPGKERELVAAISSSGGSTYYADSVKGRFTISRDNAKNTVYLQMNCLNPEDTAVYYCAGDPSPYGDEYDYWVQGTQVTVSS: low polyreactivity
21. QVQLVESGGGLVQAGGSLRLSCAASGRTFGPYAMGWYIQAPGKERELVAAITWSSGRTYYADSVKGRFTISRDNAKNTVYLQMNSLKPEDTAVYYCNKDRFYRNNYGYGYWGQGTQVTVSS: high polyreactivity
